- procedure details: enzyme screen for hydrolysis/methanolysis of butyl-KLG (HPLC of products and remaining substrate)
- Type: biochemical
- Parameters: unit: ppm
- settings: Table 8: 38° C., 21 Hours, 8.6% Methanol-Water, 0.2 M MES
recorded metric: MeKLG formed (ppm)
Numeric answer only, unit ppm assumed.

molecule Rhizoipus Delmar Lipase: Rhizoipus Delmar Lipase (protein, UniProt P61872 96-392, looked up) Lipase: DDNLVGGMTLDLPSDAPPISLSSSTNSASDGGKVVAATTAQIQEFTKYAGIAATAYCRSVVPGNKWDCVQCQKWVPDGKIITTFTSLLSDTNGYVLRSDKQKTIYLVFRGTNSFRSAITDIVFNFSDYKPVKGAKVHAGFLSSYEQVVNDYFPVVQEQLTAHPTYKVIVTGHSLGGAQALLAGMDLYQREPRLSPKNLSIFTVGGPRVGNPTFAYYVESTGIPFQRTVHKRDIVPHVPPQSFGFLHPGVESWIKSGTSNVQICTSEIETKDCSNSIVPFTSILDHLSYFDINEGSCL , MeKLG formed observed: 0
